Reported pIC50 is given for each of the following compounds.
Molecular target: Beta tubulin
Test: Inhibition of tubulin polymerization interacting at the colchicine binding site.
pIC50: −log10 of the molar value.

Structure notation | Target | pIC50
CC[C@]1(O)C[C@@H]2CN(CCc3c([nH]c4ccccc34)[C@@](C(=O)OC)(c3cc4c(cc3OC)N(C)[C@H]3[C@@](O)(C(=O)OC)[C@H](OC(C)=O)[C@]5(CC)C=CCN6CC[C@]43[C@@H]65)C2)C1 | Beta tubulin | 6.00
COc1cc(O)c2c(c1Cc1ccc(O)cc1)CCc1cc(O)ccc1-2 | Beta tubulin | 3.52
COc1cc(O)c(-c2c(O)cc3c(c2OC)-c2ccc(O)cc2CC3)c2c1-c1ccc(O)cc1CC2 | Beta tubulin | 4.52
COc1cc(O)c(-c2c(O)cc(OC)c3c2ccc2cc(O)ccc23)c2c1-c1ccc(O)cc1CC2 | Beta tubulin | 4.52
COc1cc(O)cc(CCc2cccc(O)c2)c1Cc1ccc(O)cc1 | Beta tubulin | 5.00
COc1c(Cc2ccc(O)cc2)c(O)c(Cc2ccc(O)cc2)c2c1-c1ccc(O)cc1CC2 | Beta tubulin | 4.52
COc1cc(O)c(Cc2ccc(O)cc2)c(CCc2cccc(O)c2)c1Cc1ccc(O)cc1 | Beta tubulin | 5.00
COc1cc(O)c(-c2c(O)cc(OC)c3c2ccc2cc(O)ccc23)c2ccc3cc(O)ccc3c12 | Beta tubulin | 4.52
COc1c(O)ccc2c1ccc1c(Cc3ccc(O)cc3)c(O)cc(OC)c12 | Beta tubulin | 4.52
